# experimental system: CK1alpha (h) (Homo sapiens (Human), UniProt P48729)
# Sequence (P48729 whole entry): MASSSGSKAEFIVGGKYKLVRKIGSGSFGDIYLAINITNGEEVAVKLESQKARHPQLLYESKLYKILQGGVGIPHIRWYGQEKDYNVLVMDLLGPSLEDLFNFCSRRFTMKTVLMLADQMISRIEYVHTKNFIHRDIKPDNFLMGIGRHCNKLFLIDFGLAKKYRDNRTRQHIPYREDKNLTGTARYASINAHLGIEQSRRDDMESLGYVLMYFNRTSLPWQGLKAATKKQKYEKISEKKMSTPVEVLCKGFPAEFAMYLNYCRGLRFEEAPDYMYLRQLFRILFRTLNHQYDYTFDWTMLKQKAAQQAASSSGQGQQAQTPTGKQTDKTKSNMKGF
# assay procedure: Kinase selectivity panel: CK1alpha (h)
# Type: biochemical
# experimental context: 10 μM in duplicate, read-out: % inhibition of control values
Parameter: inhibition at 10 µM. Scope: all listed entries.
property name: inhibition at 10 µM (%)

>  <compound structure>
COCCN1CCC(CNC(=O)c2n[nH]c3ccc(-c4cccc(F)c4F)cc23)CC1

>  <obs value>
6

$$$$
>  <compound structure>
COCCN1CCC(CNC(=O)c2n[nH]c3ccc(OC)cc23)CC1

>  <obs value>
12

$$$$
>  <compound structure>
COc1ccc2[nH]nc(C(=O)NCC3CCN(CCC(=O)O)CC3)c2c1

>  <obs value>
0

$$$$
>  <compound structure>
COc1ccc2[nH]nc(C(=O)NCC3CCN(CC(=O)O)CC3)c2c1

>  <obs value>
0

$$$$

---

# experimental system: EphB2 kinase (h) (Homo sapiens (Human))
# Sequence (P29323 19-1055): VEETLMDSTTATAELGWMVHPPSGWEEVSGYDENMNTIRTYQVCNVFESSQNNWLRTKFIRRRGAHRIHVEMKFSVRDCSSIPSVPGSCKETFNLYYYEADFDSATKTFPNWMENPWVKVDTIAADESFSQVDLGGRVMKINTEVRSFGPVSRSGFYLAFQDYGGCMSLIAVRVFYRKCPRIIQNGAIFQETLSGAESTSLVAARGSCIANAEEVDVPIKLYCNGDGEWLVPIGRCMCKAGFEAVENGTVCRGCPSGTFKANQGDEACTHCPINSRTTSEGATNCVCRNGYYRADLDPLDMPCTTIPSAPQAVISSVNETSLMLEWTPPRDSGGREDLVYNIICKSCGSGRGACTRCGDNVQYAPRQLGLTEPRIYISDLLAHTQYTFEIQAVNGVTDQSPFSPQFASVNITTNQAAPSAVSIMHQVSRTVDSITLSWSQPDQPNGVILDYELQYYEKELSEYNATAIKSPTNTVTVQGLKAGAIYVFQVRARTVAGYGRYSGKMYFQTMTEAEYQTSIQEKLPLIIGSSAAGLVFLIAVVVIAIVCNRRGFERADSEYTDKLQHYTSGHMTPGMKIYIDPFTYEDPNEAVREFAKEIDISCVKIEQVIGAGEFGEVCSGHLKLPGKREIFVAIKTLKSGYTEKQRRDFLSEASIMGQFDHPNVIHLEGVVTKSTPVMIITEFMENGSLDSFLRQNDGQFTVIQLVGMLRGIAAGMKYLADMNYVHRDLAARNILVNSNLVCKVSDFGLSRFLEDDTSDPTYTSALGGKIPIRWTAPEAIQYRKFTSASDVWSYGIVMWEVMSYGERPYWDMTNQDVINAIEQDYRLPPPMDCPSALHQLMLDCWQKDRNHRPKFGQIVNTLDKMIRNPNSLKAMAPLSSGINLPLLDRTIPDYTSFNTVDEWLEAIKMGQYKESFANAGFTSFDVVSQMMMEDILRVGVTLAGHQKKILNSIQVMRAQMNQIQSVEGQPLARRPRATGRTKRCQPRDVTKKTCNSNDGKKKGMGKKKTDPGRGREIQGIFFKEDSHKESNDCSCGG
# assay procedure: Kinase selectivity panel: EphB2 kinase (h)
# Type: biochemical
# experimental context: 10 μM in duplicate, read-out: % inhibition of control values
Below, each entry is listed alongside its reported inhibition at 10 µM.

>  <compound structure>
COCCN1CCC(CNC(=O)c2n[nH]c3ccc(-c4cccc(F)c4F)cc23)CC1

>  <unit of measurement>
%

>  <inhibition at 10 µM>
2

$$$$
>  <compound structure>
COc1ccc2[nH]nc(C(=O)NCC3CCN(CC(=O)O)CC3)c2c1

>  <unit of measurement>
%

>  <inhibition at 10 µM>
4

$$$$
>  <compound structure>
COCCN1CCC(CNC(=O)c2n[nH]c3ccc(OC)cc23)CC1

>  <unit of measurement>
%

>  <inhibition at 10 µM>
7

$$$$
>  <compound structure>
COc1ccc2[nH]nc(C(=O)NCC3CCN(CCC(=O)O)CC3)c2c1

>  <unit of measurement>
%

>  <inhibition at 10 µM>
0

$$$$

---

# experimental system: PKA (h) (Homo sapiens (Human), UniProt P17612)
# assay procedure: Kinase selectivity panel: PKA (h)
# Type: biochemical
# experimental context: 10 μM in duplicate, read-out: % inhibition of control values

>  <compound structure>
COc1ccc2[nH]nc(C(=O)NCC3CCN(CC(=O)O)CC3)c2c1

>  <unit of measurement>
%

>  <inhibition at 10 µM>
0

$$$$
>  <compound structure>
COCCN1CCC(CNC(=O)c2n[nH]c3ccc(OC)cc23)CC1

>  <unit of measurement>
%

>  <inhibition at 10 µM>
2

$$$$
>  <compound structure>
COc1ccc2[nH]nc(C(=O)NCC3CCN(CCC(=O)O)CC3)c2c1

>  <unit of measurement>
%

>  <inhibition at 10 µM>
0

$$$$
>  <compound structure>
COCCN1CCC(CNC(=O)c2n[nH]c3ccc(-c4cccc(F)c4F)cc23)CC1

>  <unit of measurement>
%

>  <inhibition at 10 µM>
0

$$$$

---

# experimental system: Fyn kinase (h) (Homo sapiens (Human), UniProt P06241)
# Sequence (P06241 whole entry): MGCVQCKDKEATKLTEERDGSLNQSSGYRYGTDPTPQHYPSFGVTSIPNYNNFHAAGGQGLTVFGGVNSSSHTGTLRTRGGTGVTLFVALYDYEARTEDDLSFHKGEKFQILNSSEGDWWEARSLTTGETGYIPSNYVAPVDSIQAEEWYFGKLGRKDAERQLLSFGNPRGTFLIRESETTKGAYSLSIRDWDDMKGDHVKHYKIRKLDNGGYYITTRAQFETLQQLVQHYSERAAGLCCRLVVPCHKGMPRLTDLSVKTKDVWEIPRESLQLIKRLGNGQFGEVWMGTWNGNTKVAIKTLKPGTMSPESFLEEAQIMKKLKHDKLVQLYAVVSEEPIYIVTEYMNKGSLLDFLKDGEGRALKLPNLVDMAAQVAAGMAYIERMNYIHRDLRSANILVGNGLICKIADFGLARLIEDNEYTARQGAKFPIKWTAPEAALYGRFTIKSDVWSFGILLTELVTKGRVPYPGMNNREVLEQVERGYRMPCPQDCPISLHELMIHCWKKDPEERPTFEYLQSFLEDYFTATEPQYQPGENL
# assay procedure: Kinase selectivity panel: Fyn kinase (h)
# Type: biochemical
# experimental context: 10 μM in duplicate, read-out: % inhibition of control values
property name: inhibition at 10 µM (%)

>  <molecule>
COCCN1CCC(CNC(=O)c2n[nH]c3ccc(OC)cc23)CC1 [Compound 2]

>  <property name>
inhibition at 10 µM

>  <obs value>
3

$$$$
>  <molecule>
COc1ccc2[nH]nc(C(=O)NCC3CCN(CCC(=O)O)CC3)c2c1 [Compound 3]

>  <property name>
inhibition at 10 µM

>  <obs value>
0

$$$$
>  <molecule>
COc1ccc2[nH]nc(C(=O)NCC3CCN(CC(=O)O)CC3)c2c1 [Compound 1]

>  <property name>
inhibition at 10 µM

>  <obs value>
0

$$$$
>  <molecule>
COCCN1CCC(CNC(=O)c2n[nH]c3ccc(-c4cccc(F)c4F)cc23)CC1 [Compound 8]

>  <property name>
inhibition at 10 µM

>  <obs value>
0

$$$$
